# protocol text: Volume of distribution at steady state in Wistar/Han rat at 2.6 mg/kg, iv
# Assay type: ADME, organism-based
# Design: dose 2.6 mg/kg, route intravenous
# condition details: in vivo, read-out: Vdss
property: Vd

What value of Vd has been recorded for this entry: COc1ccc(-c2cc(C(C)(C)C)c(OC)c3cc(-c4ccc(NS(C)(=O)=O)cc4)cnc23)c(=O)[nH]1 2.2 L/kg

====

# protocol text: Volume of distribution at steady state in Beagle dog at 0.86 mg/kg, iv
# Type: ADME, organism-based, Canis lupus familiaris
# Set-up: dose 0.86 mg/kg, route intravenous
# condition details: in vivo, read-out: Vdss
property: Vd

What value of Vd has been recorded for this entry: COc1ccc(-c2cc(C(C)(C)C)c(OC)c3cc(-c4ccc(NS(C)(=O)=O)cc4)cnc23)c(=O)[nH]1 2.8 L/kg
